# measured_target: Zap1 (UniProt P47043)
# Sequence: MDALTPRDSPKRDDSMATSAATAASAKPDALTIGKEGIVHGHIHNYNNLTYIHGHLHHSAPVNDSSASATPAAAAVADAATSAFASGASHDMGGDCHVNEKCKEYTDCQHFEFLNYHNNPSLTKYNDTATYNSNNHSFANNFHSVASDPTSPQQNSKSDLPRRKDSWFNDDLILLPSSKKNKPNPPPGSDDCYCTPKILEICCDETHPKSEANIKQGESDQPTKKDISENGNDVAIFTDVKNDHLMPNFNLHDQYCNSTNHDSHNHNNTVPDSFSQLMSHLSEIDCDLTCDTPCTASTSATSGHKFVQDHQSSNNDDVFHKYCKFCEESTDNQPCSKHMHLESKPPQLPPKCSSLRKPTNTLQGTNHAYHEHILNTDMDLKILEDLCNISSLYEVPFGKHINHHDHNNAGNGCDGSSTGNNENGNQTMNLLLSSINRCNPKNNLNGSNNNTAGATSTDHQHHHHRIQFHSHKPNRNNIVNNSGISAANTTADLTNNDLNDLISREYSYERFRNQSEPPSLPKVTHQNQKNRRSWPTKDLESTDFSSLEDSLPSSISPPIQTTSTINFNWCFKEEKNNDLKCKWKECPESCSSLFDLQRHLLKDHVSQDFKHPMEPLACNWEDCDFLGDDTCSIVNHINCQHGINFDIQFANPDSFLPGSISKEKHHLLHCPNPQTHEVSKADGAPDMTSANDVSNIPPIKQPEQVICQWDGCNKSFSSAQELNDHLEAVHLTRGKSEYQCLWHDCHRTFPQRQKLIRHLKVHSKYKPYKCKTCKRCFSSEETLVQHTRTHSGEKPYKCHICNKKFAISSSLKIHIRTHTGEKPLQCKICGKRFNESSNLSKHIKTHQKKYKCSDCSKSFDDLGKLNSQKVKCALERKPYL
# assay: PBM E-score (8-mer binding enrichment) (E-score (-0.5 to 0.5)); higher = stronger / more preferred TF binding
# condition_summary: protein concentration: 200 nM; construct: GST-full length
Whole data set: some 33,000 sequences, median “E-score (-0.5 to 0.5)” near -0.021, cut for the highest 2% near 0.32. The full list was thinned out, with the highest values kept by preference.
Readings of PBM E-score for the listed sequences
experimental_readout: PBM E-score

residue_string: TACCTTCA
measured_target: Zap1 (UniProt P47043)
endpoint_value: 0.255
//
residue_string: GAGAGAGC
measured_target: Zap1 (UniProt P47043)
endpoint_value: -0.261
//
residue_string: CTTGGCGC
measured_target: Zap1 (UniProt P47043)
endpoint_value: 0.0977
//
residue_string: CGTGGAGA
measured_target: Zap1 (UniProt P47043)
endpoint_value: -0.239
//
residue_string: ATCTGGAA
measured_target: Zap1 (UniProt P47043)
endpoint_value: -0.00838
//
residue_string: CCATACCC
measured_target: Zap1 (UniProt P47043)
endpoint_value: 0.29
//
residue_string: ACATACCA
measured_target: Zap1 (UniProt P47043)
endpoint_value: -0.0785
//
residue_string: CGGGTACC
measured_target: Zap1 (UniProt P47043)
endpoint_value: 0.432
//
residue_string: AACCTTGA
measured_target: Zap1 (UniProt P47043)
endpoint_value: 0.429
//
residue_string: GCATACCA
measured_target: Zap1 (UniProt P47043)
endpoint_value: -0.0787
//
residue_string: CGGGTACG
measured_target: Zap1 (UniProt P47043)
endpoint_value: 0.0198
//
residue_string: AACCTTGT
measured_target: Zap1 (UniProt P47043)
endpoint_value: 0.229
//
residue_string: GCATACCC
measured_target: Zap1 (UniProt P47043)
endpoint_value: 0.344
//
residue_string: AGCCTCTA
measured_target: Zap1 (UniProt P47043)
endpoint_value: -0.101
//
residue_string: CACCTCTA
measured_target: Zap1 (UniProt P47043)
endpoint_value: 0.22
